Overview of recorded IC50 for various molecules
Molecular target: CyclinA2/CDK2 (Homo sapiens)
Construct: purchased CRELUX Protein Services
Assay: Fluorescence Polarization (FP) competitive binding assay, Cyclin A2/Cdk2;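 also: plates equilibrated two hours at room temperature before polarization reading, IC50 fitted from eight-concentration compound titration curves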
Conditions: 8 nM Cyclin A2/Cdk2, 2 nM FAM probe; average of 2-3 independent experiments; read-out: Cyclin A FP IC50
*1 amine or outer side, *2 acyl side, *3 side chain or, on linkers, in order; H or OH if unused. Where a SMILES comes first, the peptide text is derived from it. Bridges are numbered along the chain shown (N, C = ends). [ ]: non-standard residue; d: D form. The star is where a group is joined. X6 = CN([C@@H](Cc1cc(Cl)ccc1-c1ccc(-c2cccnc2)cc1)C(=O)[*:2])[*:1]; NMehhhLys(Me) = CN([C@@H](CCCCCCCN(C)[*:3])C(=O)[*:2])[*:1]; X104 = CN([C@@H](Cc1cc(Cl)ccc1C1=CCOCC1)C(=O)[*:2])[*:1]; NMe(hhhLys) = CN([C@@H](CCCCCCCN[*:3])C(=O)[*:2])[*:1]; cBuCO(3,3-F2-1-CF3) = O=C(C1(C(F)(F)F)CC(F)(F)C1)*; Pro(trans-4-F) = O=C(O)[C@@H]1C[C@@H](F)CN1; Gly(cPr) = N[C@H](C(=O)O)C1CC1
Quantity measured: IC50 (nM)

• CC(C)C[C@@H]1NC(=O)[C@@H](N(C)C(=O)[C@@H](NC(=O)[C@@H]2C[C@@H](F)CN2C(=O)C2(C(F)(F)F)CC(F)(F)C2)C2CC2)CCCCCCCNC(=O)[C@H](Cc2cc(Cl)ccc2C2=CCOCC2)N(C)C1=O [Example 21] ({cBuCO(3,3-F2-1-CF3)}-[Pro(trans-4-F)][Gly(cPr)][NMe(hhhLys)]L[X104]; lactam 3-C) = 20
• CC(C)C[C@@H]1NC(=O)[C@@H](N(C)C(=O)[C@@H](NC(=O)[C@@H]2C[C@@H](F)CN2C(=O)C2(C(F)(F)F)CC(F)(F)C2)C2CC2)CCCCCCCN(C)C(=O)[C@H](Cc2cc(Cl)ccc2-c2ccc(-c3cccnc3)cc2)N(C)C1=O [Example 375] ({cBuCO(3,3-F2-1-CF3)}-[Pro(trans-4-F)][Gly(cPr)][NMehhhLys(Me)]L[X6]; lactam 3-C) = 20
• CC(C)C[C@@H]1NC(=O)[C@@H](N(C)C(=O)[C@@H](NC(=O)[C@@H]2C[C@@H](F)CN2C(=O)C2(C(F)(F)F)CC(F)(F)C2)C2CC2)CC=CCCCCNC(=O)[C@H](Cc2cc(Cl)cnc2OC2CC2)N(C)C1=O (single isomer, unassigned) [Example 102-P2] = 120
• Cc1nnc(-c2ccc(Cl)cc2C[C@H]2C(=O)N(C)CCCCC=CC[C@H](N(C)C(=O)[C@@H](NC(=O)[C@@H]3C[C@@H](F)CN3C(=O)C3(C(F)(F)F)CCC3)C3CC3)C(=O)N[C@@H](CC(C)C)C(=O)N2C)o1 [Example 115] = 40

###

Collected pIC50 values appear next to each entry.
Biological target: CyclinE1/CDK2 (Homo sapiens)
Construct: purchased Eurofins, discovery 14-475
Assay: Fluorescence Polarization (FP) competitive binding assay, Cyclin E1/Cdk2;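 also: readings taken after two-hour equilibration at room temperature in HEPES buffer with NaCl, DTT, NP-40 and BSA, IC50 fitted from eight-concentration serial dilution series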
Conditions: 10 nM Cyclin E1/Cdk2, 2 nM FAM probe; average of 2-3 independent experiments; read-out: Cyclin E FP IC50
pIC50: −log10 of the molar value. *1 amine or outer side, *2 acyl side, *3 side chain or, on linkers, in order; H or OH if unused. Where a SMILES comes first, the peptide text is derived from it. Bridges are numbered along the chain shown (N, C = ends). [ ]: non-standard residue; d: D form. The star is where a group is joined. X212 = CN1CCC(Oc2ccc(-c3ccc(Cl)cc3C[C@@H](C(=O)[*:2])N(C)[*:1])cn2)CC1; X59 = CC(c1ccc(-c2ccc(Cl)cc2C[C@@H](C(=O)[*:2])N(C)[*:1])cc1)N1CCOCC1; X11 = CN1CCN(c2ccc(-c3ccc(Cl)cc3C[C@@H](C(=O)[*:2])N(C)[*:1])cc2)CC1; NMehhhLys(Me) = CN([C@@H](CCCCCCCN(C)[*:3])C(=O)[*:2])[*:1]; X163 = CN([C@@H](Cc1cc(Cl)ccc1N1CCOCC1)C(=O)[*:2])[*:1]; cBuCO(3,3-F2-1-CF3) = O=C(C1(C(F)(F)F)CC(F)(F)C1)*; Pro(trans-4-F) = O=C(O)[C@@H]1C[C@@H](F)CN1; Gly(cPr) = N[C@H](C(=O)O)C1CC1
Quantity measured: pIC50

- CC(C)C[C@@H]1NC(=O)[C@@H](N(C)C(=O)[C@@H](NC(=O)[C@@H]2C[C@@H](F)CN2C(=O)C2(C(F)(F)F)CC(F)(F)C2)C2CC2)CCCCCCCN(C)C(=O)[C@H](Cc2cc(Cl)ccc2-c2ccc(N3CCN(C)CC3)cc2)N(C)C1=O [Example 336] ({cBuCO(3,3-F2-1-CF3)}-[Pro(trans-4-F)][Gly(cPr)][NMehhhLys(Me)]L[X11]; lactam 3-C): 6.38
- CC(C)C[C@@H]1NC(=O)[C@@H](N(C)C(=O)[C@@H](NC(=O)[C@@H]2C[C@@H](F)CN2C(=O)C2(C(F)(F)F)CC(F)(F)C2)C2CC2)CCCCCCCN(C)C(=O)[C@H](Cc2cc(Cl)ccc2-c2ccc(C(C)N3CCOCC3)cc2)N(C)C1=O (stereo partly drawn) [Example 403] ({cBuCO(3,3-F2-1-CF3)}-[Pro(trans-4-F)][Gly(cPr)][NMehhhLys(Me)]L[X59]; lactam 3-C): 6.17
- CC(C)C[C@@H]1NC(=O)[C@@H](N(C)C(=O)[C@@H](NC(=O)[C@@H]2C[C@@H](F)CN2C(=O)C2(C(F)(F)F)CC(F)(F)C2)C2CC2)CCCCCCCN(C)C(=O)[C@H](Cc2cc(Cl)ccc2N2CCOCC2)N(C)C1=O [Example 319] ({cBuCO(3,3-F2-1-CF3)}-[Pro(trans-4-F)][Gly(cPr)][NMehhhLys(Me)]L[X163]; lactam 3-C): 5.87
- CC(C)C[C@@H]1NC(=O)[C@@H](N(C)C(=O)[C@@H](NC(=O)[C@@H]2C[C@@H](F)CN2C(=O)C2(C(F)(F)F)CC(F)(F)C2)C2CC2)CCCCCCCN(C)C(=O)[C@H](Cc2cc(Cl)ccc2-c2ccc(OC3CCN(C)CC3)nc2)N(C)C1=O [Example 396] ({cBuCO(3,3-F2-1-CF3)}-[Pro(trans-4-F)][Gly(cPr)][NMehhhLys(Me)]L[X212]; lactam 3-C): 5.60
